# Tested on: Toxoplasma gondii
# PROTOCOL_DETAILS: Antimicrobial activity against tachyzoites of Toxoplasma gondii expressing PRU-beta-Gal gene infected in HFF after 72 hrs by colorimetric microtiter assay
# Type: functional, organism-based
QUANTITY: IC50 (µM)

INSERT INTO results (smiles_input, quantity, value_reported) VALUES
  ('CCc1nc(N)nc(N)c1-c1ccc(Cl)cc1', 'IC50', 0.8);

---

# PROTOCOL_DETAILS: Cytotoxicity against human HepG2 cells after 72 hrs by MTT assay
# Format: cell-based
QUANTITY: CC50 at 72 h (µM)

INSERT INTO measurements (smiles_input, relation_qualifier, value_reported) VALUES
  ('Fc1ccccc1Sc1nc(C(Cl)(Cl)Cl)nc2ccccc12', '=', 28),
  ('FC(F)(F)c1cccc(Sc2nc(C(Cl)(Cl)Cl)nc3ccccc23)c1', '=', 17.5),
  ('Cc1ccc(Sc2nc(C(Cl)(Cl)Cl)nc3ccccc23)cc1', '>', 30),
  ('Clc1cccc(Sc2nc(C(Cl)(Cl)Cl)nc3ccccc23)c1', '=', 16),
  ('FC(F)(F)c1ccccc1Sc1nc(C(Cl)(Cl)Cl)nc2ccccc12', '=', 28),
  ('COc1ccc(Sc2nc(C(Cl)(Cl)Cl)nc3ccccc23)cc1', '>', 8);
